B1: HDV Ribozyme (parent)
chain: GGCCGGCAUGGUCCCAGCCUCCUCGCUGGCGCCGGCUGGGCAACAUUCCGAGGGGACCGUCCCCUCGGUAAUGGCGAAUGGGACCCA

- Variants of: B1
- protocol-details: self-cleavage, relative activity (ratio to wild type); higher = more cleavage; co-transcriptional

mutation-list	self-cleavage
C21U U60A	0.237
G29U C32U	0.0665
C41G C84A	0.508
U65G G74C	0.309
C30G G74A	0.0733
C21A A51G	0.0326
A70G A78C	0.151
A43G U79G	0.199
G31C G52C	0.277
G73U A83C	0.17
A56C C75U	0.0723
U12G G31C	0.138
G34U C63A	0.164
G35A U65C	0.521
C57G C61A	1.03
C15U A70C	0.776
C24A A43U	0.258
C22G A43U	0.115
C3G U47G	0.457
C26A A56C	1.06
G29A C32U	0.218
A8U G28C	0.166
C3G A16C	0.208
C24A G68C	0.628
G68A A87G	0.995
C22A G54U	0.317
G6C G81U	0.0615
G25U A51G	0.266
C19G G53A	0.041
G53C A87U	0.903
C57U A83G	0.808
C4A C36G	0.0875
U12A A45C	0
A43C C75G	0.314
G53A U60A	0.938
